Data credit: PubChem BioAssay AID1963849

- Tested on: 299254-011-R-J1-PDC complex spheroid viability
- experiment_notes: Anticancer human tumor 299254-011-R-J1-PDC patient-derived melanoma cell line growth inhibition [POLQ]
- condition_parameters: curve of first compound; second compound 3.16 µM

# compound, IC50
measured = [
    ("CNCc1ccc(-c2[nH]c3cc(F)cc4c3c2CCNC4=O)cc1 + COC1C(OC(N)=O)C(O)C(Oc2ccc3c(O)c(NC(=O)c4ccc(O)c(CC=C(C)C)c4)c(=O)oc3c2C)OC1(C)C", "> 10 µM"),
    ("COc1cc(C2c3cc4c(cc3C(OC3OC5COC(C)OC5C(O)C3O)C3COC(=O)C23)OCO4)cc(OC)c1O (stereo not given) + COC1C(OC(N)=O)C(O)C(Oc2ccc3c(O)c(NC(=O)c4ccc(O)c(CC=C(C)C)c4)c(=O)oc3c2C)OC1(C)C", "> 10 µM"),
    ("O=c1[nH]cc(F)c(=O)[nH]1 + Cc1cccc(N(C)C(=O)C2C(O)CCN2c2nc(C)cc(C(F)(F)F)c2C#N)c1", "> 10 µM"),
    ("O=C(c1cc(Cc2n[nH]c(=O)c3ccccc23)ccc1F)N1CCN(C(=O)C2CC2)CC1 + Nc1ccc(C#CCN(C(=O)Cc2ncc(C(F)(F)F)cc2C(F)(F)F)c2ccc(F)cc2)nn1", "> 10 µM"),
    ("Nc1ccn(C2OC(CO)C(O)C2(F)F)c(=O)n1 (stereo not given) + Nc1ccc(C#CCN(C(=O)Cc2ncc(C(F)(F)F)cc2C(F)(F)F)c2ccc(F)cc2)nn1", "0.144 µM"),
]

###

- Test system: 299254-011-R-J1-PDC complex spheroid viability
- experiment_notes: Anticancer human tumor 299254-011-R-J1-PDC cell line growth inhibition [POLQ];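 also: spheroids exposed to drugs for one week before measurement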;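 as to viability, T/C: percent viability relative to DMSO vehicle control taken as 100%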
- condition_parameters: second compound 0.0316 µM; first compound 0.01 µM; stronger effect = lower value
Each record here notes measured viability, T/C.

# molecule, uom, viability, T/C
measured = [
    ("COc1cccc(OCCCN)c1-c1cc(Nc2cnc(C#N)cn2)n[nH]1 + Cc1cccc(N(C)C(=O)C2C(O)CCN2c2nc(C)cc(C(F)(F)F)c2C#N)c1", "%", 108),
    ("C=CCn1c(=O)c2cnc(Nc3ccc(N4CCN(C)CC4)cc3)nc2n1-c1cccc(C(C)(C)O)n1 + COC1C(OC(N)=O)C(O)C(Oc2ccc3c(O)c(NC(=O)c4ccc(O)c(CC=C(C)C)c4)c(=O)oc3c2C)OC1(C)C", "%", 99.6),
    ("CC[C@@]1(O)C(=O)OCc2c1cc1n(c2=O)Cc2cc3c(CN(C)C)c(O)ccc3nc2-1 + Cc1cccc(N(C)C(=O)C2C(O)CCN2c2nc(C)cc(C(F)(F)F)c2C#N)c1", "%", 104),
]

###

- System: 299254-011-R-J1-PDC complex spheroid viability
- experiment_notes: Anticancer human tumor 299254-011-R-J1-PDC cell line growth inhibition [POLQ];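 also: spheroids exposed to drugs for one week before measurement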;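 as to viability, T/C: percent viability relative to DMSO vehicle control taken as 100%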
- condition_parameters: second compound 0.316 µM; first compound 10 µM; stronger effect = lower value
Each record here notes measured viability, T/C.

# compound, viability, T/C
rows = [
    ("CNCc1ccc(-c2[nH]c3cc(F)cc4c3c2CCNC4=O)cc1 + Cc1cccc(N(C)C(=O)C2C(O)CCN2c2nc(C)cc(C(F)(F)F)c2C#N)c1", "116%"),
    ("C#Cc1c(F)ccc2cc(O)cc(-c3ncc4c(N5CC6CCC(C5)N6)nc(OCC56CCCN5CC(F)C6)nc4c3F)c12 (stereo not drawn) + Nc1ccc(C#CCN(C(=O)Cc2ncc(C(F)(F)F)cc2C(F)(F)F)c2ccc(F)cc2)nn1", "92.4%"),
    ("C#Cc1c(F)ccc2cc(O)cc(-c3ncc4c(N5CC6CCC(C5)N6)nc(OCC56CCCN5CC(F)C6)nc4c3F)c12 (stereo not drawn) + Cc1cccc(N(C)C(=O)C2C(O)CCN2c2nc(C)cc(C(F)(F)F)c2C#N)c1", "75.5%"),
]
